Listed here: items and their measured TGI.
- Test system: SF-295 CNS
- Test Summary: NCI tumour cell line growth inhibition, 48 h

Compound	TGI
Cc1c(O)c(OC2OC(CO)C(O)C(O)C2O)cc2c1C=C[C@@H]1[C@@]2(C)C(=O)C[C@]2(C)[C@@H]([C@@](C)(O)C(=O)CCC(C)(C)O)[C@H](O)C[C@@]12C (some centres not stated)	36 µM
CCc1ccc2nccc(NCCCN(C)C)c2c1[N+](=O)[O-]	> 100 µM
Cc1cc(C)c(S(=O)(=O)N(CCc2cccc(Br)c2)Cc2ccc(-c3cccc(S(C)(=O)=O)c3)cc2)c(C)c1	> 100 µM
COC(=O)NC(Cc1ccccc1)NC(C)=O (configuration not stated)	> 100 µM

[in] Fill in TGI for record `C=C(CNC(=O)c1ccccc1)c1ccc(C(=O)Nc2ccccc2N)cc1`
[out] > 100 µM

[in] Answer with the recorded TGI of `CC(C)(C)OC(=O)N1[C@@H]2Cc3ccc(N)cc3[C@@]1(C)c1ccccc12` only.
[out] > 100 µM

[in] Let me know recorded TGI for COC(=O)[C@H](C)NC(=O)[C@@H](OC)[C@@H]1Cc2cc3cc(OC4CC(OC5CC(O)C(O)C(C)O5)C(O)C(C)O4)c(C)c(O)c3c(O)c2C(=O)[C@H]1OC1CC(OC2CC(OC3CC(C)(O)C(O)C(C)O3)C(O)C(C)O2)C(O)C(C)O1 (some centres not stated) , thanks.
[out] > 50 µM
